tested on: rodent lifetime carcinogenesis bioassay, tumor incidence TD50; assay: carcinogenic potency in animals, long-term in vivo studies, CPDB compilation (AID 1745844); settings: rat; strain Fischer 344; males; in feed; site: any site (literature study); lesion: several types; types named in the paper; dosed 108 weeks; study length 108 weeks
experimental-endpoint: TD50 (mg/kg/day)
Note: unit mg/kg/day is implicit; provide only the numeric part.

Ask: Identify TD50 associated with the compound `C[N+](C)(C)CCCl`
Result: 3360

====

system: rodent lifetime carcinogenesis bioassay, tumor incidence TD50; experiment: carcinogenic potency in animals, long-term in vivo studies, CPDB compilation (AID 1745844); conditions: mouse; strain B6C3F1; females; by gavage; site: liver; lesion: hepatocellular adenoma + hepatocellular carcinoma + neoplastic nodule; dosed 102 weeks; study length 105 weeks
experimental-endpoint: TD50 (mg/kg/day)
Reply numerically in mg/kg/day, unit not repeated.

Ask: For rodent lifetime carcinogenesis bioassay, tumor incidence TD50, give TD50 of the listed compound: `ClC(Cl)Br`
Result: 28.9

====

system: rodent lifetime carcinogenesis bioassay, tumor incidence TD50; assay: carcinogenic potency in animals, long-term in vivo studies, CPDB compilation (AID 1745844); conditions: rat; strain Sprague-Dawley; females; in feed; site: any site (literature study); lesion: several types; types named in the paper; dosed 45 weeks; study length 75 weeks
experimental-endpoint: TD50 (mg/kg/day)
I only need the number, in mg/kg/day, no unit after it.

Ask: Consider the compound `O=CNNc1nc(-c2ccc([N+](=O)[O-])o2)cs1` . State its measured TD50.
Result: 3.79

====

test system: rodent lifetime carcinogenesis bioassay, tumor incidence TD50; experiment: carcinogenic potency in animals, long-term in vivo studies, CPDB compilation (AID 1745844); conditions: rat; strain Fischer 344; females; in feed; site: liver; lesion: hepatocellular adenoma + hepatocellular carcinoma + neoplastic nodule; dosed 93 weeks; study length 103 weeks
experimental-endpoint: TD50 (mg/kg/day)
Write the value in mg/kg/day as a bare number.

Ask: Report TD50 for `Cc1ccc(N)cc1N`
Result: 58

====

tested on: rodent lifetime carcinogenesis bioassay, tumor incidence TD50; assay: carcinogenic potency in animals, long-term in vivo studies, CPDB compilation (AID 1745844); settings: mouse; strain CBA/Cb/Se; females; by gavage; site: lung; lesion: several types; types named in the paper; dosed 36 weeks; study length 74 weeks
experimental-endpoint: TD50

Ask: Input `O=S(=O)(O)O` , output reported TD50.
Result: 3.35 mg/kg/day

====

test system: rodent lifetime carcinogenesis bioassay, tumor incidence TD50; assay: carcinogenic potency in animals, long-term in vivo studies, CPDB compilation (AID 1745844); conditions: mouse; strain B6C3F1; males; i.p.; site: brain; lesion: olfactory neuroblastoma; dosed 52 weeks; study length 85 weeks
experimental-endpoint: TD50

Ask: Quickly give me recorded TD50 for `CNNCc1ccc(C(=O)NC(C)C)cc1`
Result: 5.19 mg/kg/day

====

tested on: rodent lifetime carcinogenesis bioassay, tumor incidence TD50; test: carcinogenic potency in animals, long-term in vivo studies, CPDB compilation (AID 1745844); conditions: mouse; strain B6C3F1; females; by gavage; site: skin; lesion: fibrosarcoma + fibrous histiocytoma; dosed 104 weeks; study length 104 weeks
experimental-endpoint: TD50 (mg/kg/day)
The answer is to be given in mg/kg/day; state only the numeric part.

Ask: For the compound `C/C=C/C=C/C=O` , report TD50.
Result: 218
